test system: NCI-H226 lung; experiment: NCI-60 one-dose screen, 48 h (100 = growth as untreated, 0 = no growth, -100 = all killed); settings: 10 µM unless noted
About 83,000 compounds went through this panel and 20% of them were active in at least one assay; those are over-represented in the sample as a whole.
measuredEndpoint: growth (%)
Quick reminder: number only, in %, skip the unit.

Record summary for O=C(Nc1ccc(-n2cc(-c3ccncc3)c(-c3ccc(Cl)c(O)c3)n2)cc1)Nc1cc(C(F)(F)F)cc(C(F)(F)F)c1 : reported growth = 42

Field growth (entry O=C(/C=C/c1ccc(Cl)cc1)c1ccc(Cl)cc1 ) reads 100

growth for C/C=C(/C)C(=O)OC1C=C(CO)C(=O)C(OC(=O)/C(C)=C\C)C1C(C)C (stereo not drawn) is -0.591

# compound CCC1(CC)C(OC)NC(Br)=C(C#N)C1(C#N)C(N)=O (stereo not drawn) ; its growth = 114

Record CCCC[N+](C)(N)CCCC . Reported growth: 105

Per the record, Cc1ccc(OCCn2ccc(=O)n(CCOc3ccc(Cl)cc3C(=O)c3cc(C)cc(C)c3)c2=O)cc1 has growth of 62.9

Note to self: growth recorded for N#Cc1c2cccnc2c2nnc3cc(Cl)c(Cl)cc3n12 was 79.6

Cc1nc2ccccc2c(=O)n1-c1cccc(OCc2cn(-c3cccc(O)c3)nn2)c1 yielded growth of 105

So, C=C1CCC2C3(C)COC(c4ccccc4)OC3CCC2(C)C1C/C=C1/C(=O)OCC1O (stereo not drawn) ? Its growth was 92.2

The recorded growth for CC(C)(C)c1ccc([I+]c2ccc(C(C)(C)C)cc2)cc1 is 23.8

According to the records, this compound c1ccc(-c2cn3ccnc3c(-c3ccc4ncn(C5CCCCC5)c4c3)n2)cc1 displays growth of 66.1

The compound COc1cccc(-c2cc(-c3cc4ccccc4oc3=O)nc(N)n2)c1 showed growth equal to 91.2

The recorded growth for entry Cc1ccc(C(=O)NN)cc1 equals 109

For reference, reported growth for CCOC(=O)c1sc(NS(=O)(=O)c2ccccc2)nc1C stands at 106

The value of growth measured for the compound Nc1ccc(N=Nc2ccccc2)c2cc(S(=O)(=O)O)ccc12 turned out to be 103

Recorded growth (compound COc1ccccc1Nc1nnc(COc2ccc(CNC(=O)CCCC/C=C/C(C)C)cc2OC)o1 ): 79.7

Lab note: O=C(O)c1ccc(-c2nn(-c3ccc(C(=O)O)cc3)cc2CNc2ccc(Br)cc2)cc1 gave growth of 115

In plain terms, CCOC(=O)C1=NN(c2ccccc2)C2=NC(=O)/C(=C\c3cn(-c4ccccc4)nc3-c3cc4ccccc4o3)C(=O)N12 has a documented growth of 84.7

Form: compound = COc1ccc(-c2nc(Nc3nc4ccccc4[nH]3)nc(N)c2C#N)cc1 ; growth = 85.4

Quick note, growth for N#CCCCCCCCCCCC#N landed at 111

Lab note: C[C@H]1C[C@@H](n2cnc3c(N)nccc32)[C@H](O)[C@@H]1O gave growth of 105

The compound listed as N#Cc1c2ncccc2c2nnc3cc(Cl)c(Cl)cc3n12 has a reported growth of 104

growth in this record for O=C(Nc1ccc(-n2cc(-c3ccncc3)c(-c3ccc(Cl)c(O)c3)n2)cc1)c1ccc(Cl)c(C(F)(F)F)c1 : 89

get_value(item= COc1cc(CCNc2cnc3cc(N)cc(N)c3n2)cc(OC)c1 , readout=growth) returns 99.4

Field growth (entry COC(=O)/C=C/c1cc(O)c2oc(-c3ccc(O)c(O)c3)c(C(=O)OC)c2c1 ) reads 18.2

Lookup result for Cc1ccc(C(=O)C(Br)C(Br)c2ccccc2)cc1 (stereo not drawn) ; measured growth: 92.8

growth recorded for this compound, CCCNC(=O)Oc1ccc(/C(=C(/CC)Cc2ccccc2)c2ccc(OCCN(CC)CC)cc2)cc1 , is 87.3

The recorded growth for entry Cc1ccccc1-n1c(C)nc2cc(NC(=O)c3ccc(Cl)cc3)ccc2c1=O equals 88.8

Lab note: measured growth of CCN(CC)CCOC(=O)c1cccnc1 was 90.3

The measured growth associated with CCCCCc1ccnc(CC(=O)c2ccc(OC)cc2)c1 reads 88.6

// sample NC(=O)c1c(Nc2ccccc2)nn2cc(-c3nc4ccccc4s3)c(N)nc12 , its growth was 85.5

Lab note: measured growth of CC(O)CN(CCO)CCN(CCO)CC(C)O (stereo not drawn) was 99.3

Lab book: growth of NNC(=S)N1N=C(c2cc3ccccc3o2)CC1c1c[nH]c2ccccc12 (stereo not drawn) noted as 69.7

compound CCCCCCNc1nc(N2CCOCC2)c2[nH]c(NCCCCCC)nc2n1 , growth observed: -82.9

growth recorded for this compound, C/C=C(/C)C(=O)OC1C=C(CO)C(=O)C(OC(=O)C(C)(O)C(C)Cl)C1C(C)C (stereo not drawn) , is -19.4

The recorded growth for C/C(=C\c1ccc2ccccc2c1)[N+](=O)[O-] is 67

Consider Cc1c(CN(C)C)cc(C(C)C)cc1C(C)C . Its measured growth is 93.5

# growth (compound: CCOC(=O)c1ccc2n1CCCc1cnc(NC(C)=O)nc1-2 ) is 82.4

Entry under test: CCOC(=O)c1c(C)oc2ncnc(Nc3ccc(NC(=O)Nc4ccc(CC)cc4)cc3)c12 . Its growth was 104

Notebook: Cc1ccc([C@@H]2C[C@H](O)Cc3ccccc3N2)s1 , growth read as 124

growth recorded for this compound, O=C(Nc1cccc(Cn2c(=O)[nH]c3ccc(Oc4ncccn4)cc3c2=O)c1)c1cccc(F)c1 , is 74.1

Recorded result, COc1ccc(CN2C(=O)/C(=C\C(=O)c3ccc(OCCN4CCCCC4)cc3)c3ccccc32)cc1 , growth: 89.6

Measured growth of Nc1nc2cc(O)ccc2n2cc3c(F)cccc3c12 : 54.8
